# key: entry, value: Chromogenic IC50 ratio cyno/human
TEST_SYSTEM: cynomolgus PAI-1 (cynomolgus, UniProt P05121 24-402 (human entry), limits assumed)
PROTOCOL_DESCRIPTION: cell-based or functional assay
Express your answer in fold, writing the number without its unit.

Antibody 01 scFv (scFv) QVQLVQSGAEVKKPGSSVKVSCKASGGTFSSYAISWVRQAPGQGLEWMGGIIPIFGTANYAQKFQGRVTITADESTSTAYMELSSLRSEDTAVYYCAREKRQWLEGHFDYWGRGTLVTVSSDIQMTQSPSTLSASVGDRVTITCRASEGIYRSLAWYQQKPGKAPKLLIYKASSLASGVPSRFSGSGSGTEFTLTISSLQPDDFATYYCQQYSNYPLTFGGGTKVEIK	0.4

Then there is this binder:
Tell me the measured Chromogenic IC50 ratio cyno/human of Antibody 20 IgG1, not germlined (antibody, V domains shown, IgG1; also called Ab 20) VH: QVQLQQSGAEVKKPGSSVKVSCKASGGTFSSYAISWVRQAPGQGLEWMGGIIPTFGTANYAQKFQGRVTITADESTSTAYMELSSLRSEDTAVYYCAREKRQWLEGHFDYWGRGTLVTVSS VL: DIQMTQSPSTLSASVGDRVTITCRASEGIYHELAWYQQKPGKAPKLLIYRASSLASGVPSRFSGSRSGTEFTLTISSLQPDDFATYYCQQYSDYPLTFGGGTKVEIK , please.
0.5
